target: rNav1.2 sodium channels (HEK-293 cells) (Rattus norvegicus); experiment: steady-state inactivation protocol (availability curves), QPatch automated patch-clamp; type: cell-based; details: Kr (resting state affinity), geometric mean; from Inh at −150 mV, 100 µM
pKd by entry:
The value called pKd is obtained by taking minus log10 of the concentration in mol/L.

[[record]]
compound = "CNCCC(Oc1ccccc1OC)c1ccccc1 (centres unmarked)"
measured_target = "rNav1.2 sodium channels (HEK-293 cells) (Rattus norvegicus)"
test_result = 3.71


Next compound, please.
**Q:** Look up pKd for this compound: COc1ccc(C(CN(C)C)C2(O)CCCCC2)cc1 (centres unmarked)
**A:** 3.05

----------
Quick reference for pKi among some compounds
molecular target: rNav1.2 sodium channels (HEK-293 cells) (Rattus norvegicus); experiment: steady-state inactivation protocol (availability curves), QPatch automated patch-clamp; assay type: cell-based; settings: geometric mean; from apparent affinity, 300 µM; read-out: Ki−Kapp (inactivated state affinity)
Note: pKi values are expressed as the negative base-10 logarithm of concentration in M.

Reference set (6 entries):
[[record]]
compound = "NC(=O)N1c2ccccc2C=Cc2ccccc21 [CBZ, Carbamazepine]"
test_result = 4.58

[[record]]
compound = "O=C1NC(=O)C(c2ccccc2)(c2ccccc2)N1"
test_result = 4.15

[[record]]
compound = "Nc1nnc(-c2cccc(Cl)c2Cl)c(N)n1"
test_result = 4.44

[[record]]
compound = "Cc1cccc(C)c1OCC(C)N (stereo not shown)"
test_result = 4.75

[[record]]
compound = "COc1ccccc1OCC(O)CN1CCN(CC(=O)Nc2c(C)cccc2C)CC1 (stereo not shown)"
test_result = 4.97

[[record]]
compound = "CCN(CC)CC(=O)Nc1c(C)cccc1C"
test_result = 4.18


**Q:** Which value of pKi has been reported for O=C(NCC1CCCCN1)c1cc(OCC(F)(F)F)ccc1OCC(F)(F)F (stereo not shown) [FLC, Flecainide] in the records?
**A:** 5.24

----------
target: rNav1.2 sodium channels (HEK-293 cells) (Rattus norvegicus, UniProt P04775); experiment: 5 Hz train protocol, QPatch automated patch-clamp; assay type: cell-based; conditions: 300 μM; 5 Hz train;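 on UD (use-dependence of the inhibition): UD = (A3/A4)/(A1/A2) as ratios of peak amplitudes from Figure 1A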
Sequence (P04775 whole entry): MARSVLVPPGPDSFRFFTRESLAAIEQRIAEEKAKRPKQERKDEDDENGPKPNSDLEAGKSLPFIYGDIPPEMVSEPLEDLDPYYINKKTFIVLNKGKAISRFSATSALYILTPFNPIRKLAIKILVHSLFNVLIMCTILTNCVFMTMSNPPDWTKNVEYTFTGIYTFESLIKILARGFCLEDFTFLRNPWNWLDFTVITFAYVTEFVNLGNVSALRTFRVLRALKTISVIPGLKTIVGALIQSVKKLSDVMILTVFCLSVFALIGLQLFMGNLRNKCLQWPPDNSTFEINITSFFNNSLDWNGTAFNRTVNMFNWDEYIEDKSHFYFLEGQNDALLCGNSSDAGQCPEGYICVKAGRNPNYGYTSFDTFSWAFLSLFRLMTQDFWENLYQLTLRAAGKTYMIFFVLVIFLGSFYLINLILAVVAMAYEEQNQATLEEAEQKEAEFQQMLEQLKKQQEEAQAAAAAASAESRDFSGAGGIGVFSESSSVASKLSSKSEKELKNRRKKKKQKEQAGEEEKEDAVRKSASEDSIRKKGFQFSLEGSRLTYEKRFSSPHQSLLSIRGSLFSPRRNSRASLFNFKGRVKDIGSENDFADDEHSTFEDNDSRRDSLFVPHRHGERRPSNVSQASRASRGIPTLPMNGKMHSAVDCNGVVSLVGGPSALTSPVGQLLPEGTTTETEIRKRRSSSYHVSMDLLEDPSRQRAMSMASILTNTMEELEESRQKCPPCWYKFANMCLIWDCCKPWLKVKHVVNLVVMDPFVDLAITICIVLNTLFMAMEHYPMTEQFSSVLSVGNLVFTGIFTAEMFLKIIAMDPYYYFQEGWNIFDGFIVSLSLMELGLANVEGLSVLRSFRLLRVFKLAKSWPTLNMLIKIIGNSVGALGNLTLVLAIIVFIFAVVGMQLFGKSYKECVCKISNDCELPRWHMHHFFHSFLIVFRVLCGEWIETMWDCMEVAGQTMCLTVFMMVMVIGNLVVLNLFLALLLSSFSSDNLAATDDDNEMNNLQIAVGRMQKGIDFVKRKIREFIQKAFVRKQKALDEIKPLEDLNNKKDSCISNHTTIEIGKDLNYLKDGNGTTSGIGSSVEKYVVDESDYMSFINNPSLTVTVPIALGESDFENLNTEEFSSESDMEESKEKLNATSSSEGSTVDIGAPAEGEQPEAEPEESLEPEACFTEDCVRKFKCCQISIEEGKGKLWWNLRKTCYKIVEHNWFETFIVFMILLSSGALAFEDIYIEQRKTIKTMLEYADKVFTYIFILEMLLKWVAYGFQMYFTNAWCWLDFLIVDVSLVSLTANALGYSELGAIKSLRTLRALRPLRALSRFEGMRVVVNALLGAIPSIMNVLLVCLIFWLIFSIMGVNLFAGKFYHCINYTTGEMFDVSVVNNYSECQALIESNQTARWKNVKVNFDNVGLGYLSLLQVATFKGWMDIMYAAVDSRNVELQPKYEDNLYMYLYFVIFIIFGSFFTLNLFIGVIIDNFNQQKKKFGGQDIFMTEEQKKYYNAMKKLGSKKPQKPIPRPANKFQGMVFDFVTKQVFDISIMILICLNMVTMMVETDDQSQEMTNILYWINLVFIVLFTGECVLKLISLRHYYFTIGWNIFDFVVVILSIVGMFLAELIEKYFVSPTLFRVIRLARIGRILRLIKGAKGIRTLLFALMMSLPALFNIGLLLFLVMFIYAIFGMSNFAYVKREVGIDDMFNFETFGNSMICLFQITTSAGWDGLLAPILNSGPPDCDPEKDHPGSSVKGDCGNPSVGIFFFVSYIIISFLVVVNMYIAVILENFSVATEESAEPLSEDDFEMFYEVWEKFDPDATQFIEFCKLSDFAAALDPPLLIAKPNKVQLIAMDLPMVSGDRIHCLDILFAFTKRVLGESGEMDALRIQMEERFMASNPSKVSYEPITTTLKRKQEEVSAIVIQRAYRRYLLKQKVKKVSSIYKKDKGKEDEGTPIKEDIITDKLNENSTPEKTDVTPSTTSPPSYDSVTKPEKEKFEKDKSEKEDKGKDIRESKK
Catalogue of UD (use-dependence of the inhibition) readings, one per entry.
Just the number, please, no unit after it.

[[record]]
compound = "CCN(CC)CC(=O)Nc1c(C)cccc1C [LID, Lidocaine]"
test_result = 1.14

[[record]]
compound = "O=C1NC(=O)C(c2ccccc2)(c2ccccc2)N1 [DPH, 5,5-diphenyl-hydantoin]"
test_result = 1.01

[[record]]
compound = "NC(=O)N1c2ccccc2C=Cc2ccccc21 [CBZ, Carbamazepine]"
test_result = 0.98

[[record]]
compound = "O=C(NCC1CCCCN1)c1cc(OCC(F)(F)F)ccc1OCC(F)(F)F (stereo not drawn) [FLC, Flecainide]"
test_result = 1.34

[[record]]
compound = "Nc1nnc(-c2cccc(Cl)c2Cl)c(N)n1 [LTG, Lamotrigine]"
test_result = 0.97


Shift focus to the following entry.
**Q:** Lab note: need UD (use-dependence of the inhibition) for Cc1cccc(C)c1OCC(C)N (stereo not drawn) [MEX, Mexiletine] on rNav1.2 sodium channels (HEK-293 cells) (Rattus norvegicus, UniProt P04775), anyone have it?
**A:** 1.39

----------
Target: rNav1.2 sodium channels (HEK-293 cells) (Rattus norvegicus, UniProt P04775)
Test: 5 Hz train protocol, QPatch automated patch-clamp
Assay type: cell-based
Settings: 30 μM
From the text: The dynamics of the onset and offset of inhibition was monitored using 5 Hz trains of five depolarizing pulses from a holding potential of −90 mV to −10 mV. The trains were repeated every 20 s. […] We measured inhibition (Inh; from which we calculated IC50 values as described in Materials and Methods), reversibility of inhibition (Rev) and use-dependence (UD), as well as time constant of onset (τon) and offset (τoff). […]
Measured endpoint: τon (s)
State the answer as a number, implicitly in s.

Here is how some molecules turned out for τon.
[[record]]
smiles_record = "CN(C)CCCN1c2ccccc2Sc2ccc(Cl)cc21"
test_result = 14.81

[[record]]
smiles_record = "CCc1nn(CCCN2CCN(c3cccc(Cl)c3)CC2)c(=O)n1CCOc1ccccc1"
test_result = 8.75

[[record]]
smiles_record = "Cc1nc2sccn2c(=O)c1CCN1CCC(=C(c2ccc(F)cc2)c2ccc(F)cc2)CC1"
test_result = 14.38


# ---- query molecule ----
**Q:** Report τon for `Fc1ccc([C@@H]2CCNC[C@H]2COc2ccc3c(c2)OCO3)cc1` please.
**A:** 32.07
